System: CYP3A
Assay: Inhibitory effect on P450 enzymes in vitro (human liver microsomes), CYP3A
Type: in vitro ADME
Settings: probe testosterone, final concentration 10 µM, substrate testosterone, read-out: % inhibition rate CYP3A (testosterone)
Items are presented alongside their recorded inhibition at 10 min, 10 µM.

>  <substance-smiles>
COc1ccc2ccoc2c1S(=O)(=O)Nc1noc2cc(Cn3cccn3)nc(OC)c12

>  <unit-spec>
%

>  <inhibition at 10 min, 10 µM>
-2.93

$$$$
>  <substance-smiles>
COc1cc2c(cc1S(=O)(=O)Nc1noc3cc(Cn4cccn4)nc(OC)c13)CCCC2

>  <unit-spec>
%

>  <inhibition at 10 min, 10 µM>
5.84

$$$$
>  <substance-smiles>
COc1cc2c(cc1S(=O)(=O)Nc1noc3cc(Cn4cccn4)nc(OC)c13)OCC2

>  <unit-spec>
%

>  <inhibition at 10 min, 10 µM>
-7.66

$$$$

Numbers sourced from patent EP4692094A1.
